The reader will find Ki measurements below, all made with L-lactate dehydrogenase B chain (Homo sapiens).
Sequence (P07195 whole entry): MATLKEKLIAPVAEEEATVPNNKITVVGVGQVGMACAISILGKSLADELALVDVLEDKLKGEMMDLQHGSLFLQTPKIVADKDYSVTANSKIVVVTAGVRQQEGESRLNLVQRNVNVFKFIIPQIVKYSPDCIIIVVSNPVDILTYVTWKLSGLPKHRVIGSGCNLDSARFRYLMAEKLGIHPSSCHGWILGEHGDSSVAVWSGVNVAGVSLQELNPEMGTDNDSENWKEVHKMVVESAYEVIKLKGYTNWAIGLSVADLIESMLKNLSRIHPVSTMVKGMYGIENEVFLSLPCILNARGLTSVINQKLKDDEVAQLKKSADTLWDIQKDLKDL
property_measured: Ki (µM)

INSERT INTO measurements (molecule, assay_target, scale_unit, quantitative_readout) VALUES
  ('Cc1cc2c(C(C)C)c(O)c(O)c3c2c(c1-c1c(C)cc2c(C(C)C)c(O)c(O)c4c2c1OC4=O)OC3=O', 'L-lactate dehydrogenase B chain (Homo sapiens)', 'µM', 0.4);

(P) Cc1cc2c(C(C)C)c(O)c(O)c(C(=O)O)c2cc1-c1ccc2c(C(C)C)c(O)c(O)c(C(=O)O)c2c1
(Q) Cc1cc2c(C(C)C)c(O)c(O)c(C(=O)O)c2cc1Cc1ccc(Cl)cc1
Lower value for measured Ki? Options: P , Q Label of pick, please. P
(P: 0.7 µM, Q: 8 µM)

* * *

The reader will find pKi measurements below, all made with L-lactate dehydrogenase A chain (Homo sapiens).
pKi: −log10 of the molar value.
property_measured: pKi

Use these answered entries as a reference point.
INSERT INTO results (molecule, assay_target, property_measured, quantitative_readout) VALUES
  ('Cc1cc2c(C(C)C)c(O)c(O)c(C(=O)O)c2cc1Cc1ccc(Cl)cc1', 'L-lactate dehydrogenase A chain (Homo sapiens)', 'pKi', 6.00),
  ('Cc1cccc(-c2cc3c(C(=O)O)c(O)c(O)c(C(C)C)c3cc2C)c1', 'L-lactate dehydrogenase A chain (Homo sapiens)', 'pKi', 6.70),
  ('Cc1ccccc1-c1cc2c(C(=O)O)c(O)c(O)c(C(C)C)c2cc1C', 'L-lactate dehydrogenase A chain (Homo sapiens)', 'pKi', 5.52),
  ('Cc1cc2c(C(C)C)c(O)c(O)c(C=O)c2c(O)c1-c1c(C)cc2c(C(C)C)c(O)c(O)c(C=O)c2c1O [GOSSYPOL]', 'L-lactate dehydrogenase A chain (Homo sapiens)', 'pKi', 5.72),
  ('Cc1cc2c(C(C)C)c(O)c(O)c3c2c(c1-c1c(C)cc2c(C(C)C)c(O)c(O)c4c2c1OC4=N)OC3=N', 'L-lactate dehydrogenase A chain (Homo sapiens)', 'pKi', 5.60),
  ('Cc1cc2c(C(C)C)c(O)c(O)c3c2c(c1-c1c(C)cc2c(C(C)C)c(O)c(O)c4c2c1OC4=O)OC3=O', 'L-lactate dehydrogenase A chain (Homo sapiens)', 'pKi', 6.22);

(I) CC(=O)Oc1c(-c2c(C)cc3c(C(C)C)c(O)c(O)c(C#N)c3c2OC(C)=O)c(C)cc2c(C(C)C)c(O)c(O)c(C#N)c12
(II) Cc1ccc(-c2cc3c(C(=O)O)c(O)c(O)c(C(C)C)c3cc2C)cc1
Lower value for measured pKi? Options: I , II Label of pick, please. I
